Tested on: mice
assayName: Acute toxicity in mice
Format: in vivo, mouse
experimentalConditions: male Std-ddY mice; 100 mg/kg i.p.; mortality observed for 7 days
Experimental: An acute toxicity test was performed using male Std-ddY mice weighing 25-30 g. Test compounds dissolved or suspended in 0.5 % tragacanth solution were administered intraperitoneally.
recordedEndpoint: Acute toxicity in mice (number of dead animals/number of animals used)

CN1CCN(Cc2ccccc2)CC(NC(=O)c2n[nH]c3ccccc23)C1 (stereo not shown)
0/5

Answer with reported Acute toxicity in mice (number of dead animals/number of animals used) of CN1CCN(Cc2cccnc2)CC(NC(=O)c2n[nH]c3ccccc23)C1 (stereo not shown)
0/5

# return recorded Acute toxicity in mice (number of dead animals/number of animals used) for entry CCC(=O)n1nc(C(=O)NC2CN(C)CCN(Cc3ccccc3)C2)c2ccccc21 (stereo not shown)
1/5

Answer with reported Acute toxicity in mice (number of dead animals/number of animals used) of CN1CCN(Cc2ccccc2)CC(NC(=O)c2nn(C)c3ccccc23)C1 (stereo not shown)
2/5

Dear colleague, please send me the reported Acute toxicity in mice (number of dead animals/number of animals used) for Cc1cccc(CN2CCN(C)CC(NC(=O)c3n[nH]c4ccccc34)C2)c1 (stereo not shown) when you can.
1/5

Determine from records and report Acute toxicity in mice (number of dead animals/number of animals used) for CN1CCN(Cc2ccncc2)CC(NC(=O)c2n[nH]c3ccccc23)C1 (stereo not shown)
1/5

Specify reported Acute toxicity in mice (number of dead animals/number of animals used) for the compound shown: CN1CCN(Cc2ccc(F)cc2)CC(NC(=O)c2n[nH]c3ccccc23)C1 (stereo not shown)
0/5
